Molecular target: BRD4 protein (Homo sapiens (Human))
Test: BRD4 protein degradation inducing action in LNCaP cells (immunofluorescence, 6 hr)
Type: cell-based
Settings: anti-BRD4 fluorescence intensity
Procedure: The degradation inducing action of the compound of the present invention on BRD4 proteins in cancer cells was evaluated in vitro using human prostate cancer LNCaP cells. […] After incubation for 1 hr, BRD4 protein amount was measured by Operetta (Perkin Elmer) as fluorescence intensity (excitation: 560 nm, emission: 572 nm). […] The DC50 value is a concentration of the compound showing 50% fluorescence intensity when the fluorescence intensity thereof under compound untreated condition is 100%. […]
Rule for this label: Met means DC50 is less than 0.1 nM; Not met means DC50 is at least 0.1 nM.

Look over these answered cases.
>  <SMILES INPUT>
CCc1ccc(NS(=O)(=O)c2ccc(CNC(=O)c3ccc(-c4ccc(C5=N[C@@H](CC(=O)OC)c6nnc(C)n6-c6sc(C)c(C)c65)cc4)cc3C)cc2)c2[nH]cc(C#N)c12

>  <ASSAY SYSTEM>
BRD4 protein (Homo sapiens (Human))

>  <LABEL VALUE>
Not met

$$$$
>  <SMILES INPUT>
COC(=O)C[C@@H]1N=C(c2ccc(-c3ccc(C(=O)NCc4ccc(S(=O)(=O)Nc5ccc(C)c6c(C#N)c[nH]c56)cc4)cc3Cl)cc2)c2c(sc(C)c2C)-n2c(C)nnc21

>  <ASSAY SYSTEM>
BRD4 protein (Homo sapiens (Human))

>  <LABEL VALUE>
Not met

$$$$
>  <SMILES INPUT>
COC(=O)C[C@@H]1N=C(c2ccc(-c3ccc(C(=O)NCCc4ccc(S(=O)(=O)Nc5ccc(C)c6c(C#N)c[nH]c56)cc4)c(F)c3)cc2)c2c(sc(C)c2C)-n2c(C)nnc21

>  <ASSAY SYSTEM>
BRD4 protein (Homo sapiens (Human))

>  <LABEL VALUE>
Not met

$$$$
>  <SMILES INPUT>
Cc1sc2c(c1C)C(c1ccc(-c3ccc(C(=O)NCCc4ccc(S(=O)(=O)Nc5ccc(C)c6c(C#N)c[nH]c56)cc4)cc3)cc1)=N[C@@H](CC(=O)OC(C)(C)C)c1nnc(C)n1-2

>  <ASSAY SYSTEM>
BRD4 protein (Homo sapiens (Human))

>  <LABEL VALUE>
Not met

$$$$
>  <SMILES INPUT>
CCc1ccc(NS(=O)(=O)c2ccc([C@@H](C)NC(=O)c3ccc(-c4ccc(C5=N[C@@H](CC(=O)OC)c6nnc(C)n6-c6sc(C)c(C)c65)cc4)cc3C)cc2)c2[nH]cc(C#N)c12

>  <ASSAY SYSTEM>
BRD4 protein (Homo sapiens (Human))

>  <LABEL VALUE>
Not met

$$$$

Next:
Challenge: Please check: DC50 for Cc1sc2c(c1C)C(c1ccc(-c3ccc(C(=O)NCc4ccc(S(=O)(=O)Nc5ccc(C)c6c(C#N)c[nH]c56)cc4)cc3F)cc1)=N[C@@H](CC(=O)OC(C)(C)C)c1nnc(C)n1-2 , strictly under 0.1 nM or not?
Response given: Not met

====

target: BRD4 protein (Homo sapiens (Human), UniProt O60885); assay: BRD4 protein degradation inducing action in LNCaP cells (immunofluorescence, 6 hr); assay type: cell-based; conditions: anti-BRD4 fluorescence intensity
MEASURED METRIC: DC50 (nM)
Give bare numbers, in nM.

>  <COMPOUND>
Cc1sc2c(c1C)C(c1ccc(-c3ccc(C(=O)NCc4ccc(S(=O)(=O)Nc5ccc(C)c6c(C#N)c[nH]c56)cc4)cc3)cc1)=N[C@@H](CC#N)c1nnc(C)n1-2 [Example 73]

>  <DC50 (nM)>
0.75

$$$$
>  <COMPOUND>
CCc1ccc(NS(=O)(=O)c2ccc(CNC(=O)c3ccc(-c4ccc(C5=N[C@@H](CC(=O)OC)c6nnc(C)n6-c6sc(C)c(C)c65)cc4)c(Cl)c3)cc2)c2[nH]cc(C#N)c12 [Example Compound 116]

>  <DC50 (nM)>
0.42

$$$$
>  <COMPOUND>
Cc1sc2c(c1C)C(c1ccc(-c3ccc(C(=O)NCc4ccc(S(=O)(=O)Nc5ccc(C)c6c(C#N)c[nH]c56)cc4)cc3)cc1)=N[C@@H](CC(=O)NCCO)c1nnc(C)n1-2 [Example 37]

>  <DC50 (nM)>
1.4

$$$$
>  <COMPOUND>
COC(=O)C[C@@H]1N=C(c2ccc(-c3ccc4oc(C(=O)NCc5ccc(S(=O)(=O)Nc6ccc(C)c7c(C#N)c[nH]c67)cc5)cc4c3)cc2)c2c(sc(C)c2C)-n2c(C)nnc21 [Example 35]

>  <DC50 (nM)>
2.7

$$$$

Challenge: Would you kindly share the measured DC50 for Cc1cc(C(=O)NCc2ccc(S(=O)(=O)Nc3ccc(C)c4c(C#N)c[nH]c34)cc2)ccc1-c1ccc(C2=N[C@@H](CC(=O)OC(C)(C)C)c3nnc(C)n3-c3sc(C)c(C)c32)cc1 [Example Compound 144] ?
Response given: 0.59

====

tested on: MDA-MB-436 w/o2 cells; experiment: Cytotoxic action on MDA-MB-436 w/o2 cells that acquired resistance to conventional BRD4 degraders (WST-8, 96 hr); format: cell-based, human; settings: Homo sapiens; MDA-MB-436 w/o2 cells, 96 hr
Give IC50 for every item shown.

>  <SMILES INPUT>
COC(=O)C[C@@H]1N=C(c2ccc(-c3ccc(C(=O)NCCc4ccc(S(=O)(=O)Nc5ccc(C)c6c(C#N)c[nH]c56)cc4)cc3F)cc2)c2c(sc(C)c2C)-n2c(C)nnc21

>  <MEASURED VALUE>
0.26 nM

$$$$
>  <SMILES INPUT>
COC(=O)C[C@@H]1N=C(c2ccc(-c3ccc(C(=O)NCCc4ccc(S(=O)(=O)Nc5ccc(C)c6c(C#N)c[nH]c56)cc4)cc3)cc2)c2c(sc(C)c2C)-n2c(C)nnc21

>  <MEASURED VALUE>
0.31 nM

$$$$
>  <SMILES INPUT>
COC(=O)C[C@@H]1N=C(c2ccc(-c3ccc(C(=O)NCc4ccc(S(=O)(=O)Nc5ccc(C)c6c(C#N)c[nH]c56)cc4)cc3)cc2)c2c(sc(C)c2C)-n2c(C)nnc21

>  <MEASURED VALUE>
0.51 nM

$$$$
>  <SMILES INPUT>
COC(=O)C[C@@H]1N=C(c2ccc(-c3ccc(C(=O)NCc4ccc(S(=O)(=O)Nc5ccc(C)c6c(C#N)c[nH]c56)cc4)nc3)cc2)c2c(sc(C)c2C)-n2c(C)nnc21

>  <MEASURED VALUE>
0.32 nM

$$$$

Challenge: Would you kindly share the measured IC50 for CCc1ccc(NS(=O)(=O)c2ccc(CNC(=O)c3ccc(-c4ccc(C5=N[C@@H](CC(=O)OC)c6nnc(C)n6-c6sc(C)c(C)c65)cc4)cc3)cc2)c2[nH]cc(C#N)c12 ?
Response given: 0.42 nM

====

tested on: Human breast cancer MDA-MB-436 cells; assay: Cytotoxic action on MDA-MB-436 cells (WST-8, 96 hr); format: cell-based
MEASURED METRIC: IC50 (nM)
Numbers only, in nM.

>  <MOLECULE>
Cc1ncsc1-c1ccc(CNC(=O)[C@@H]2C[C@@H](O)CN2C(=O)[C@@H](NC(=O)COCCOCCOCCNC(=O)C[C@@H]2N=C(c3ccc(Cl)cc3)c3c(sc(C)c3C)-n3c(C)nnc32)C(C)(C)C)cc1 [MZ1, reference compound]

>  <ASSAY SYSTEM>
Human breast cancer MDA-MB-436 cells

>  <MEASUREMENT UNIT>
nM

>  <IC50>
1900

$$$$

Next item in the queue.
Challenge: Would you kindly share the measured IC50 for Cc1ncsc1-c1ccc([C@H](C)NC(=O)[C@@H]2C[C@@H](O)CN2C(=O)[C@@H](NC(=O)COCCCOCCNC(=O)C[C@@H]2N=C(c3ccc(Cl)cc3)c3c(sc(C)c3C)-n3c(C)nnc32)C(C)(C)C)cc1 [ARV-771, reference compound] ?
Response given: 5.6

====

tested on: MDA-MB-436 w/o2 cells; experiment: Cytotoxic action on MDA-MB-436 w/o2 cells that acquired resistance to conventional BRD4 degraders (WST-8, 96 hr); format: cell-based, human; conditions: MDA-MB-436 w/o2 cells, 96 hr
MEASURED METRIC: IC50 (nM)
Numbers only, in nM.

Challenge: Would you kindly share the measured IC50 for Cc1ncsc1-c1ccc([C@H](C)NC(=O)[C@@H]2C[C@@H](O)CN2C(=O)[C@@H](NC(=O)COCCCOCCNC(=O)C[C@@H]2N=C(c3ccc(Cl)cc3)c3c(sc(C)c3C)-n3c(C)nnc32)C(C)(C)C)cc1 [ARV-771, reference compound] ?
Response given: 860

====

system: human fibrosarcoma HT1080 cell; experiment: Cytotoxic action on HT1080 cells (WST-8, 96 hr); assay type: cell-based; settings: HT-1080, HT1080, 96 hr
MEASURED METRIC: IC50 (nM)
Answers are plain numbers, in nM.

Challenge: Would you kindly share the measured IC50 for COC(=O)C[C@@H]1N=C(c2ccc(-c3ccc(C(=O)NCc4ccc(S(=O)(=O)Nc5ccc(C)c6c(C#N)c[nH]c56)cc4)cc3)cc2)c2c(sc(C)c2C)-n2c(C)nnc21 [Example 1] ?
Response given: 13
